- SYSTEM NAME: UniProt C6KT18
- ASSAY: IC50 for competition of protein binding to Kinobeads;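 note: native unpurified kinases from lysate captured on beads bearing immobilized kinase inhibitors, with bead-bound kinases quantified by mass spectrometry across compound doses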
- CONDITION CONTEXT: assay detail: Kinobeads competition in P. falciparum blood-stage lysate
pIC50: −log10 of the molar value.
QUANTITY: pIC50

The molecule O=c1[nH]c2ccc(Cl)cc2c(NC2CN3CCC2CC3)c1-c1nc2ccccc2[nH]1 (stereo unspecified) showed pIC50 equal to < 4.70

###

- SYSTEM NAME: UniProt Q7K6B1
- ASSAY: IC50 for competition of protein binding to Kinobeads
- CONDITION CONTEXT: assay detail: Kinobeads competition in P. falciparum blood-stage lysate
QUANTITY: IC50

Noted for O=c1[nH]c2ccc(Cl)cc2c(NC2CN3CCC2CC3)c1-c1nc2ccccc2[nH]1 (stereo unspecified) [CHIR-124] : its IC50 reads > 20 µM
